# Tested on: TNBC cell line MDA-MB-231
# Protocol notes: CCK-8 assay, antiproliferative activity against MDA-MB-231
# Experimental conditions: Homo sapiens, MDA-MB-231, 72 h, read-out: IC50 MDA-MB-231
Outcome measure: pIC50
pIC50 here is simply -log10 of the concentration when that concentration is written in mol/L.

Recall the recorded pIC50 for COC(=O)[C@H](Cc1ccc(N(CCCl)CCCl)cc1)NC(=O)CCC(=O)OCc1coc2ccc(OC)cc2c1=O [Compound 18d] with TNBC cell line MDA-MB-231 and state it.
4.89

Item: Cc1ccc2occ(CNC(=O)[C@H](Cc3ccc(N(CCCl)CCCl)cc3)NC=O)c(=O)c2c1 [Compound 21b]
5.03

What about this compound? COC(=O)[C@H](Cc1ccc(N(CCCl)CCCl)cc1)NC(=O)CCC(=O)NCc1coc2ccc(C)cc2c1=O [Compound 21d]
5.16

What do we get for COC(=O)[C@H](Cc1ccc(N(CCCl)CCCl)cc1)NC(=O)CCC(=O)OCc1coc2ccc(C)cc2c1=O [Compound 17d] ?
4.94

COc1ccc2occ(COC(=O)c3ccc(N(CCCl)CCCl)cc3)c(=O)c2c1 [Compound 18a] ?
5.02

Request: Cc1ccc2occ(CNC(=O)[C@H](Cc3ccc(N(CCCl)CCCl)cc3)NC(=O)OC(C)(C)C)c(=O)c2c1 [Compound 21c]
4.90

Entry COC(=O)[C@H](Cc1ccc(N(CCCl)CCCl)cc1)NC(=O)CCCC(=O)OCc1coc2ccc(OC)cc2c1=O [Compound 18e] please
5.05

Also need COC(=O)[C@H](Cc1ccc(N(CCCl)CCCl)cc1)NC(=O)CCC(=O)NCc1coc2ccc(OC)cc2c1=O [Compound 22d] , thanks.
5.52

Another compound: COC(=O)[C@H](Cc1ccc(N(CCCl)CCCl)cc1)NC(=O)CCCC(=O)OCc1coc2ccc(C)cc2c1=O [Compound 17e]
5.08

Would you kindly repeat that for COC(=O)[C@H](Cc1ccc(N(CCCl)CCCl)cc1)NC(=O)CCCC(=O)NCc1coc2ccc(OC)cc2c1=O [Compound 22e] ?
5.72

Same for COC(=O)[C@H](Cc1ccc(N(CCCl)CCCl)cc1)NC(=O)CCCC(=O)NCc1coc2ccc(C)cc2c1=O [Compound 21e]
5.35
